Each recorded value in this set is attributed to the METLIN SMRT retention time set (Domingo-Almenara et al. 2019).

Provide the recorded RP-LC retention time for the entries that follow.
Test: gradient 5% acetonitrile 3 min, to 50% in 2 min, to 85% in 15 min, held 3 min, 100 µL/min
Conditions: column: Zorbax Extend-C18 2.1 x 50 mm; eluents: water / acetonitrile, 0.1% formic acid
Answer format: numeric, s implied, no suffix.

Prompt line: Please list RP-LC retention time recorded for the compound `Cc1cccc(C)c1NS(=O)(=O)c1cc(-c2cc(C(F)(F)F)on2)sc1C`
Response line: 1230

Prompt line: Please list RP-LC retention time recorded for the compound `COc1cccc(-c2nc(C3CCN(C(=O)c4n[nH]c5c4CCCC5)CC3)no2)c1`
Response line: 847

Prompt line: Please list RP-LC retention time recorded for the compound CC(C(=O)N1CCCc2ccccc21)n1nc(-c2ccc3c(c2)OCCO3)ccc1=O (centres undefined)
Response line: 871

Prompt line: Please list RP-LC retention time recorded for the compound `CCS(=O)(=O)Nc1ccc(-c2noc(-c3ccc4c(c3)OCO4)n2)cc1`
Response line: 954

Prompt line: Please list RP-LC retention time recorded for the compound `Cc1nc(C(=O)OCc2cc(-c3cccs3)on2)cs1`
Response line: 785

Prompt line: Please list RP-LC retention time recorded for the compound COc1cn(CC(=O)NCC2CCCO2)c(CN2CCC(C)CC2)cc1=O (centres undefined)
Response line: 570

Prompt line: Please list RP-LC retention time recorded for the compound `Cc1cccc(NC(=O)CN2C(=O)CCCc3cc(S(=O)(=O)N4CCCCC4)ccc32)c1`
Response line: 958

Prompt line: Please list RP-LC retention time recorded for the compound `COC(=O)c1ccccc1NC(=O)Cn1cnc2nc(-c3ccc(OC)cc3)ncc2c1=O`
Response line: 925

Prompt line: Please list RP-LC retention time recorded for the compound `COC(=O)c1ccc2c(=O)n(-c3ccccc3)c(N3CCCC3)nc2c1`
Response line: 908
